Data origin: patent US20090156614A1

molecular target: Cytosolic AR (Rattus norvegicus); construct: from tissue; host or cells: ventral prostate cytosol of Sprague-Dawley rats; assay: AR competitive binding assay (3H-MIB displacement, rat ventral prostate cytosol); settings: read-out: Ki
Sequence (P15207 whole entry S389L): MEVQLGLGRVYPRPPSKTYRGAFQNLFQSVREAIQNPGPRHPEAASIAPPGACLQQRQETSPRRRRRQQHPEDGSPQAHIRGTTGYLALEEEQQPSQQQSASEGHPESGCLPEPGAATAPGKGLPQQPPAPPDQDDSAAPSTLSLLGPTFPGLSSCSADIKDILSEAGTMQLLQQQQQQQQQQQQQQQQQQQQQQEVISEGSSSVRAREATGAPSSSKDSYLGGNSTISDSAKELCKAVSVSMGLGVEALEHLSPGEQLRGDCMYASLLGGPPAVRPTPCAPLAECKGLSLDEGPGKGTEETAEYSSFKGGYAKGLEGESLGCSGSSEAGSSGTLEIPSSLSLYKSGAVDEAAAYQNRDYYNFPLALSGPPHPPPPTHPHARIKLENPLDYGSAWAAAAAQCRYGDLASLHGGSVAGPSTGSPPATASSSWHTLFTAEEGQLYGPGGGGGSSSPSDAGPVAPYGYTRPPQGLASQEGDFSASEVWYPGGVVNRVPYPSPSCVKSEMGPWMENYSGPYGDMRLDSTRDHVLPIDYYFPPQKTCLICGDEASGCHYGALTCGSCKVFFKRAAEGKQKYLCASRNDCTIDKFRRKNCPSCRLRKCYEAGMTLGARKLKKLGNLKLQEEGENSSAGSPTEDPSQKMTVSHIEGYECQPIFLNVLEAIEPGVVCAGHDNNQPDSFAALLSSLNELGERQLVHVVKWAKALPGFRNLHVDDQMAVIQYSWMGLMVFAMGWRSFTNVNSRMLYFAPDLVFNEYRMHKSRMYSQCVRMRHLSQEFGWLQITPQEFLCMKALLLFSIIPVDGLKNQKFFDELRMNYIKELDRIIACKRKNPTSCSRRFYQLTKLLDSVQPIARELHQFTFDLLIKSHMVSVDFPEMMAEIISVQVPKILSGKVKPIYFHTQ
property.label: Ki (nM)
Answers are plain numbers, in nM.

compound=CC(C)(C)OC(=O)Nc1ccc(OC[C@](C)(O)C(=O)Nc2ccc([N+](=O)[O-])c(C(F)(F)F)c2)cc1 unit_spec=nM readout_value=336

**Q:** Entry `C[C@](O)(COc1ccc(Cl)cc1)C(=O)Nc1ccc(C#N)c(C(F)(F)F)c1` has what Ki?
**A:** 3.4

###

target: Cytosolic AR (Rattus norvegicus); construct: from tissue; host or cells: ventral prostate cytosol of Sprague-Dawley rats; test: AR competitive binding assay (3H-MIB displacement, rat ventral prostate cytosol)
Answer each item with its documented pKi.
One number for each entry, as −log10 of the molar value.

molecule=O=C(O)N(C(=O)CSc1ccc(F)cc1)c1ccc([N+](=O)[O-])c(C(F)(F)F)c1 property_label=pKi readout_value=6.71
molecule=C[C@](O)(COc1ccc(F)cc1F)C(=O)Nc1ccc([N+](=O)[O-])c(C(F)(F)F)c1 property_label=pKi readout_value=8.47
molecule="CC(O)(CNc1ccc(C#N)c(C(F)(F)F)c1)COc1ccc(C#N)c(F)c1 (centres unmarked)" property_label=pKi readout_value=6.38
molecule="CC1CN(S(=O)(=O)c2ccc(C(F)(F)F)cc2)C(C)CN1c1ccc(C#N)c(C(F)(F)F)c1 (centres unmarked)" property_label=pKi readout_value=5.56
molecule="CC1CN(S(=O)(=O)c2ccc(C(F)(F)F)cc2)C(C)CN1c1ccc(C#N)c(Cl)c1 (centres unmarked)" property_label=pKi readout_value=5.58

I need pKi for every entry listed below, if you could help.
1. C[C@](O)(COc1ccc(NC(N)=S)cc1)C(=O)Nc1ccc([N+](=O)[O-])c(C(F)(F)F)c1
2. C[C@](O)(Sc1ccccc1N)C(=O)Nc1ccc([N+](=O)[O-])c(C(F)(F)F)c1
3. C[C@](O)(COc1ccc(I)cc1)C(=O)Nc1ccc([N+](=O)[O-])c(C(F)(F)F)c1

**A:**
1. 7.99
2. 7.15
3. 7.65
